- measured.on: human NTCP (Homo sapiens, UniProt Q14973)
- Construct: HEK293 cell lines stably transfected with the full open reading frames of human NTCP; expressed in transfected cells
- Sequence (Q14973 1-349): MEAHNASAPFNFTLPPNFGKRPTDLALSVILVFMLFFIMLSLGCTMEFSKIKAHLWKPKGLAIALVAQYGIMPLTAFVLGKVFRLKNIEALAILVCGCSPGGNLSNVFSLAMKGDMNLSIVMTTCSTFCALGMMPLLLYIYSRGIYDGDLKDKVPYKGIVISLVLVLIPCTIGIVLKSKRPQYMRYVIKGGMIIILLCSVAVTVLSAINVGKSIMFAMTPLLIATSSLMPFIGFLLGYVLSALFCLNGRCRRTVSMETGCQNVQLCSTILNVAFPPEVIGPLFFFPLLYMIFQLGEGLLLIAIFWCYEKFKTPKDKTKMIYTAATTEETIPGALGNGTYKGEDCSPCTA
- procedure.details: Quantitative uptake of 3-NBD-BA in carrier-expressing HEK293 cells (fluorescence reader)
- Type: cell-based
- cond: NTCP-HEK293, 25 μM, 37 °C, +Na+ vs -Na+
- Procedure: For quantification of the transport activity of the synthesized NBD-BA, all cell lines were seeded on 96 well plates and transport experiments were performed under the same control conditions (-Na^+ control for the SLC10 carriers and nontransfected HEK293 cells for the OATP carriers) as before (Figure ). […] 5 Quantitative uptake experiments with the 3-NBD-BA in HEK293 cells stably expressing the human carriers NTCP, ASBT, SOAT, OATP1B1, and OATP1B3, or the mouse carriers mNtcp and mAsbt. […]
test.readout: Specific transport ratio NTCP (25µM/10 min uptake)

# example entries with known answers
compound: C[C@H](CCC(=O)O)[C@H]1CC[C@H]2[C@@H]3[C@H](O)C[C@@H]4C[C@H](Nc5ccc([N+](=O)[O-])c6nonc56)CC[C@]4(C)[C@H]3C[C@H](O)[C@]12C
readout.value: ns

compound: C[C@H](CCC(=O)NCC(=O)O)[C@H]1CC[C@H]2[C@@H]3[C@H](O)C[C@@H]4C[C@H](Nc5ccc([N+](=O)[O-])c6nonc56)CC[C@]4(C)[C@H]3C[C@H](O)[C@]12C [16d]
readout.value: 27x x-fold

compound: C[C@H](CCC(=O)NCCS(=O)(=O)[O-])[C@H]1CC[C@H]2[C@@H]3[C@H](O)C[C@@H]4C[C@@H](Nc5ccc([N+](=O)[O-])c6nonc56)CC[C@]4(C)[C@H]3C[C@H](O)[C@]12C.[Na+] [14a]
readout.value: 12x x-fold

compound: C[C@H](CCC(=O)NCCS(=O)(=O)[O-])[C@H]1CC[C@H]2[C@@H]3[C@H](O)C[C@@H]4C[C@H](Nc5ccc([N+](=O)[O-])c6nonc56)CC[C@]4(C)[C@H]3C[C@H](O)[C@]12C.[Na+] [14d]
readout.value: 9x x-fold

Could you now consider this next compound?
Tested system human NTCP (Homo sapiens, UniProt Q14973); Specific transport ratio NTCP (25µM/10 min uptake) recorded for C[C@H](CCC(=O)NCC(=O)O)[C@H]1CC[C@H]2[C@@H]3[C@H](O)C[C@@H]4C[C@@H](Nc5ccc([N+](=O)[O-])c6nonc56)CC[C@]4(C)[C@H]3C[C@H](O)[C@]12C [16a] was 15x x-fold
